// provenance: ChEMBL document CHEMBL4813919

Reported pIC50 by item:
system: PC-3; assay: Antiproliferative activity against human PC-3 cells measured after 72 hrs by MTT assay; assay type: functional, cell-based; details: PC-3, 72 h
Where a SMILES comes first, the peptide text is derived from it. [ ]: non-standard residue; d: D form. The star is where a group is joined. ξ: configuration not given here. X1 = Nc1ccn(C2OC(COC(=O)CO/N=C/C(=O)*)C(O)C2(F)F)c(=O)n1; X2 = O=C(CO/N=C/C(=O)*)Nc1ccn(C2OC(CO)C(O)C2(F)F)c(=O)n1; X3 = Nc1ccn(C2OC(CO)C(OC(=O)CO/N=C/C(=O)*)C2(F)F)c(=O)n1; ξAla(indol-2-yl) = NC(Cc1cc2ccccc2[nH]1)C(=O)O; pGlu = O=C1CC[CH](C(=O)O)N1
Reminder that pIC50 means the negative base-10 logarithm of the concentration expressed in mol/L.

Answered examples (3):
{"MOLECULE": "Nc1ccn([C@@H]2O[C@H](CO)[C@@H](O)C2(F)F)c(=O)n1", "TEST_SYSTEM": "PC-3", "REPORTED": 6.26}
{"MOLECULE": "CC(C)CC(NC(=O)C(CCCCNC(=O)/C=N/OCC(=O)OC1C(CO)OC(n2ccc(N)nc2=O)C1(F)F)NC(=O)C(Cc1ccc(O)cc1)NC(=O)C(CO)NC(=O)C(Cc1cc2ccccc2[nH]1)NC(=O)C(Cc1c[nH]cn1)NC(=O)C1CCC(=O)N1)C(=O)NC(CCCNC(=N)N)C(=O)N1CCCC1C(=O)NCC(N)=O (centres undefined) ([pGlu]H[ξAla(indol-2-yl)]SYK(X3)LRPG-NH2; configuration not given here)", "TEST_SYSTEM": "PC-3", "REPORTED": 6.17}
{"MOLECULE": "CC(C)CC(NC(=O)C(CCCCNC(=O)/C=N/OCC(=O)OCC1OC(n2ccc(N)nc2=O)C(F)(F)C1O)NC(=O)C(Cc1ccc(O)cc1)NC(=O)C(CO)NC(=O)C(Cc1cc2ccccc2[nH]1)NC(=O)C(Cc1c[nH]cn1)NC(=O)C1CCC(=O)N1)C(=O)NC(CCCNC(=N)N)C(=O)N1CCCC1C(=O)NCC(N)=O (centres undefined) ([pGlu]H[ξAla(indol-2-yl)]SYK(X1)LRPG-NH2; configuration not given here)", "TEST_SYSTEM": "PC-3", "REPORTED": 6.12}

Inquiry: Quickly give me recorded pIC50 for CC(C)CC(NC(=O)C(CCCCNC(=O)/C=N/OCC(=O)Nc1ccn(C2OC(CO)C(O)C2(F)F)c(=O)n1)NC(=O)C(Cc1ccc(O)cc1)NC(=O)C(CO)NC(=O)C(Cc1cc2ccccc2[nH]1)NC(=O)C(Cc1c[nH]cn1)NC(=O)C1CCC(=O)N1)C(=O)NC(CCCNC(=N)N)C(=O)N1CCCC1C(=O)NCC(N)=O (centres undefined) ([pGlu]H[ξAla(indol-2-yl)]SYK(X2)LRPG-NH2; configuration not given here)
Reply text: 6.08
